test system: HEK293; assay: Cytotoxic Profiling of Annotated Libraries Using Quantitative High-Throughput Screening (AID 1296008); conditions: Five cell lines viability, CellTiter-Glo ATP luminescence, 48-72 h; note: potency is the fitted concentration of half-maximal effect; nearly all actives have a fitted effect of over 60% in size
Results filed as inconclusive are left out. Calls of active or inactive are those of the source. Calls come from the whole dose curve; as a rule, active = well fitted inhibition curve with a large enough effect; inconclusive = small, poorly fitted or top-dose-only effect; inactive = flat fitted curve, though single readings scatter.

- Compound: "CN1CCN(Cc2ccc(NC(=O)Nc3ccc(Oc4cc(NC(=O)C5CC5)ncn4)cc3)cc2C(F)(F)F)CC1"
  Potency: "0.184 µM (active)"
- Compound: "CNC(=O)c1cc(Oc2ccc(NC(=O)Nc3cc(C(C)(C)C)nn3-c3ccc4ncccc4c3)c(F)c2)ccn1"
  Potency: "23.5 µM (active)"
- Compound: "O=C(C=Cc1cccc(S(=O)(=O)Nc2ccccc2)c1)NO"
  Potency: "19.1 µM (active)"
- Compound: "CCn1nnc2c(N3CCOCC3)nc(-c3ccc(NC(=O)Nc4ccc(C(=O)N5CCN(C)CC5)cc4)cc3)nc21"
  Potency: "0.206 µM (active)"
- Compound: "CN1CCC(CNc2ccc3ncc(-c4cccc(OC(F)(F)F)c4)n3n2)CC1"
  Potency: "23.5 µM (active)"
- Compound: "NC(=O)c1cccc2cn(-c3ccc([C@@H]4CCCNC4)cc3)nc12"
  Potency: "6.51 µM (active)"
- Compound: "O=C(O)c1ccc2c(c1)nc(Nc1cccc(Cl)c1)c1ccncc12"
  Potency: "10.3 µM (active)"
- Compound: "CN1CCN(c2cc(C(=O)Nc3ccc4c(c3)-c3c(c(C(N)=O)nn3-c3ccc(F)cc3)CC4)c(Cl)cn2)CC1"
  Potency: "20.9 µM (active)"
- Compound: "O=C(C=Cc1cccnc1)NCCCCC1CCN(C(=O)c2ccccc2)CC1"
  Potency: "0.0074 µM (active)"
- Compound: "COC(=O)C1=C(C)NC(C)=C(C(=O)OCCN2CCN(C(c3ccccc3)c3ccccc3)CC2)C1c1cccc([N+](=O)[O-])c1 (stereo not drawn)"
  Potency: "11.9 µM (active)"
- Compound: "CC(C)c1ccc(Cn2ccc3c4c(N)nc(NC5CC5)nc4ccc32)cc1"
  Potency: "1.18 µM (active)"
- Compound: "Nc1ccc(C(=O)c2cc3c(ccc4ccccc43)[nH]2)cc1"
  Potency: "2.96 µM (active)"

----------
test: qHTS of pediatric cancer cell lines to identify multiple opportunities for drug repurposing: Primary screen for A673 cells (AID 1347092); conditions: A673 Ewing sarcoma viability, CellTiter-Glo ATP luminescence, 48 h; series mostly up to 46 µM; note: nearly all actives have a fitted effect of over 45% in size; note: potency is the fitted concentration of half-maximal effect
Inconclusive results are not listed. Active and inactive are the calls of the source. Calls come from the whole dose curve; as a rule, active = well fitted cell-killing curve with a large enough effect; inconclusive = small, poorly fitted or top-dose-only effect; inactive = no such curve, though single readings can be large or run the other way.
Quantity kind: Potency

- Compound: "c1cc(-c2cnn3cc(-c4ccc(OCCN5CCCCC5)cc4)cnc23)ccn1"
  Obs value: "4.69 µM (active)"
- Compound: "O=C(NCCCNc1nc(Nc2cccc(NC(=O)N3CCCC3)c2)ncc1I)c1cccs1"
  Obs value: "7.43 µM (active)"
- Compound: "Nc1ccccc1NC(=O)c1ccc(CNc2nccc(-c3cccnc3)n2)cc1"
  Obs value: "2.35 µM (active)"
- Compound: "COCCn1c2c([n+](Cc3cnccn3)c1C)C(=O)c1ccccc1C2=O"
  Obs value: "0.0059 µM (active)"
- Compound: "CN1CCC(CNc2ccc3ncc(-c4cccc(OC(F)(F)F)c4)n3n2)CC1"
  Obs value: "14.8 µM (active)"
- Compound: "NCC(=O)Nc1ccc(-n2nc(C(F)(F)F)cc2-c2ccc3c(ccc4ccccc43)c2)cc1"
  Obs value: "23.5 µM (active)"
- Compound: "COc1ccc(F)c(F)c1C(=O)c1cnc(NC2CCN(S(C)(=O)=O)CC2)nc1N"
  Obs value: "1.48 µM (active)"
- Compound: "COc1cc(C(=O)NS(=O)(=O)c2ccccc2C)ccc1Cc1cn(C)c2ccc(NC(=O)OC3CCCC3)cc12"
  Obs value: "14.8 µM (active)"
- Compound: "O=C(C=Cc1cccc(S(=O)(=O)Nc2ccccc2)c1)NO"
  Obs value: "4.29 µM (active)"
- Compound: "Cn1c(=O)n(-c2ccc(C(C)(C)C#N)cc2)c2c3cc(-c4cnc5ccccc5c4)ccc3ncc21"
  Obs value: "0.0296 µM (active)"
- Compound: "CC(=O)Nc1nc(C)c(-c2ccc(Cl)c(S(=O)(=O)NCCO)c2)s1"
  Obs value: "1.87 µM (active)"
- Compound: "CCCCOc1c(C(=O)c2c(F)cc(C)cc2F)cnc2n[nH]cc12"
  Obs value: "2.35 µM (active)"
- Compound: "Cc1cc(CN2CCN(c3c(Br)cnc4nc(-c5ccc(N6CCN(C)CC6)cc5)[nH]c34)CC2)no1"
  Obs value: "23.5 µM (active)"
- Compound: "COC(=O)Nc1nc2ccc(C(=O)c3ccc(F)cc3)cc2[nH]1"
  Obs value: "0.59 µM (active)"
- Compound: "COc1cccc2nc(-c3cccs3)nc(NN3C(=O)C=C(C)C3=O)c12"
  Obs value: "2.35 µM (active)"
- Compound: "CNC(=O)c1ccccc1Nc1nc(Nc2ccc(N3CCOCC3)cc2OC)ncc1Cl"
  Obs value: "1.87 µM (active)"
- Compound: "Cn1c2cc(S(C)=O)sc2c2cnn(Cc3cccc(N)c3)c(=O)c21 (stereo not given)"
  Obs value: "inactive"
- Compound: "O=C(O)CCCc1c[nH]c2ccccc12"
  Obs value: "inactive"
- Compound: "C=C1C(=CC=C2CCCC3(C)[C@@H]([C@H](C)C=CC=CC(O)(CC)CC)CC[C@@H]23)C[C@@H](O)C[C@@H]1O (stereo not given in full)"
  Obs value: "18.7 µM (active)"
- Compound: "CN(c1ncccc1CNc1nc(Nc2ccc3c(c2)CC(=O)N3)ncc1C(F)(F)F)S(C)(=O)=O"
  Obs value: "4.69 µM (active)"

----------
experiment: Quantitative High-Throughput drug screen in 47 multiple myeloma cell lines against the NCATS MIPE library collection: Delta47_JCRB cell viability assay (AID 1918925; note: potency is the fitted concentration of half-maximal effect; nearly all actives have a fitted effect of over 45% in size); settings: Delta47 myeloma viability, CellTiter-Glo ATP, 48 h; series mostly up to 45.8 µM
Records with an inconclusive call do not appear. Calls of active or inactive are those of the source. Calls follow the shape of the dose curve; as a rule, active = well fitted cell-killing curve with a large enough effect; inconclusive = small, poorly fitted or top-dose-only effect, or effect the other way; inactive = no such curve, though single readings can be large or run the other way.

- Chemical smiles: "C1=CCOCc2cc(ccc2OCCN2CCCC2)Nc2nccc(n2)-c2cccc(c2)OCC1"
  Potency: "2350 nM (active)"
- Chemical smiles: "CC[C@H]1CN2CCc3cc(OC)c(OC)cc3[C@H]2C[C@@H]1C[C@@H]1NCCc2cc(OC)c(OC)cc21"
  Potency: "166 nM (active)"
- Chemical smiles: "C[C@@H](Oc1cc(-c2cnn(C3CCNCC3)c2)cnc1N)c1c(Cl)ccc(F)c1Cl"
  Potency: "2090 nM (active)"

----------
system: CP191; experiment: qHTS profiling for inhibitors of Plasmodium falciparum proliferation (AID 504749); note: nearly all actives have a fitted effect of over 60% in size; details: P. falciparum in erythrocytes, SYBR Green DNA, 72 h; series mostly up to 28.7 µM
Inconclusive results are not listed. Activity calls are given as the source filed them. Calls follow the shape of the dose curve; as a rule, active = well fitted inhibition curve with a large enough effect; inconclusive = small, poorly fitted or top-dose-only effect; inactive = flat fitted curve, though single readings scatter.
Outcome codes: active, inactive

- Molecule: "COC(=O)C1=C(C)NC(C)=C(C(=O)OCCN2CCN(C(c3ccccc3)c3ccccc3)CC2)C1c1cccc([N+](=O)[O-])c1 (centres undefined)"
  Class assignment: "active"
- Molecule: "CC=CC1=C(C(=O)O)N2C(=O)[C@H](NC(=O)[C@H](N)c3ccc(O)cc3)[C@@H]2SC1"
  Class assignment: "inactive"
- Molecule: "Nc1ccn([C@@H]2CS[C@H](CO)O2)c(=O)n1"
  Class assignment: "inactive"
- Molecule: "CC(C)(C)NC(=O)[C@H]1CN(Cc2cccnc2)CCN1C[C@@H](O)C[C@@H](Cc1ccccc1)C(=O)N[C@H]1c2ccccc2C[C@H]1O"
  Class assignment: "active"

----------
tested on: HeLa; test: Primary qHTS to identify gynecologic anti-cancer compounds using libraries of approved drugs and bioactive compounds (AID 1345084); settings: Gynecologic cancer cell panel viability, ATPlite luminescence, 48 h; series mostly up to 57.5 µM; note: nearly all actives have a fitted effect of over 55% in size
Results filed as inconclusive are left out. Active and inactive are the calls of the source. Calls come from the whole dose curve; as a rule, active = well fitted cell-killing curve with a large enough effect; inconclusive = small, poorly fitted or top-dose-only effect, or effect the other way; inactive = flat fitted curve, though single readings scatter.
Outcome codes: YES (active), NO (inactive)

- Molecule: "COc1cc2c(Oc3ccc4[nH]c(C)cc4c3F)ncnc2cc1OCCCN1CCCC1"
  Class assignment: "NO"
- Molecule: "c1ccc2c(CCNc3ccc(Nc4ccncc4)cc3)c[nH]c2c1"
  Class assignment: "NO"
- Molecule: "CC(O)C1C(=O)N2C(C(=O)O)=C(SC3CNC(C(=O)N(C)C)C3)C(C)C12 (centres undefined)"
  Class assignment: "NO"
- Molecule: "O=C(O)Cn1nnc(-c2cc(N3CCC(Oc4cc(F)ccc4Br)CC3)no2)n1"
  Class assignment: "NO"
- Molecule: "Cc1cc(Nc2cc(CN3CCOCC3)c3nc(C)c(Cc4ccc(Cl)cc4F)n3n2)n[nH]1"
  Class assignment: "YES"
- Molecule: "C#Cc1cccc(Nc2ncnc3cc(OC)c(OCCCCCCC(=O)NO)cc23)c1"
  Class assignment: "YES"
- Molecule: "NC(=O)c1c(OCc2c(F)cc(Br)cc2F)nsc1NC(=O)NCCCCN1CCCC1"
  Class assignment: "NO"
- Molecule: "CCCNC(=O)Nc1ccc(Oc2ncnc3cc(OC)c(OC)cc23)cc1Cl"
  Class assignment: "NO"
- Molecule: "Cc1[nH]nc2ccc(-c3cncc(OC[C@@H](N)Cc4ccccc4)c3)cc12"
  Class assignment: "YES"
- Molecule: "Cc1c(C)n(Cc2ccc(-c3ccccc3C(=O)O)cc2)c2ccc(C(=O)N[C@@H](C)c3ccc([N+](=O)[O-])cc3)cc12"
  Class assignment: "NO"
- Molecule: "COc1ccc2c(OCc3nnc4ccc(-c5ccccc5)nn34)ccnc2c1"
  Class assignment: "NO"
- Molecule: "Cn1c(CNc2ccc(C(=N)N)cc2)nc2cc(C(=O)N(CCC(=O)O)c3ccccn3)ccc21"
  Class assignment: "NO"
- Molecule: "CC(C)c1noc(N2CCC(COc3ccc(-c4ccc(S(C)(=O)=O)cc4)nc3)CC2)n1"
  Class assignment: "NO"
- Molecule: "Cc1cn(-c2cc(NC(=O)c3ccc(C)c(Nc4nccc(-c5cccnc5)n4)c3)cc(C(F)(F)F)c2)cn1"
  Class assignment: "NO"
- Molecule: "CC(C)(O)CCc1ccc(OCc2cc(-c3cccc(OC(F)F)c3)c3ncccc3c2)cc1"
  Class assignment: "NO"
- Molecule: "CC(C)c1cnn2c(NCc3ccccc3)cc(N[C@@H](CO)[C@H](O)CO)nc12"
  Class assignment: "YES"
- Molecule: "COc1ccc2c(c1)CC[C@@H](CN(C)CC(=O)O)[C@H]2c1ccccc1"
  Class assignment: "NO"
- Molecule: "Cc1cnc(Nc2ccc(F)cc2Cl)nc1-c1c[nH]c(C(=O)N[C@H](CO)c2cccc(Cl)c2)c1"
  Class assignment: "YES"
- Molecule: "Cc1cc(C(=O)N2CCN(c3cccc(Cl)c3)CC2)n(-c2ccccc2)n1"
  Class assignment: "YES"
